Every entry's value here was drawn from PubChem BioAssay (NCI).

System: CAKI-1 renal
Assay: NCI-60 one-dose screen, 48 h (100 = growth as untreated, 0 = no growth, -100 = all killed)
Conditions: 10 µM unless noted
About 83,000 compounds went through this panel and 20% of them were active in at least one assay; those are over-represented in the sample as a whole.
Catalogue of molecules with associated growth

{"Molecule": "COc1ncc(F)c(OC)n1", "growth, %": 94.5}
{"Molecule": "CCC12CCC3c4ccc(O)cc4CCC3C1CC(O)C2O (stereo not given)", "growth, %": 59.4}
{"Molecule": "CCCCOC(=O)C1OC(Oc2ccc3c(C)cc(=O)oc3c2)[C@@H](OC(C)=O)C(OC(C)=O)C1OC(C)=O (stereo not given in full)", "growth, %": 94.1}
{"Molecule": "COc1ccc(/C=C/C(=O)N2CCC(O)CC2)cc1OC1CCCC1", "growth, %": 93.1}
{"Molecule": "C[C@H]1C(=O)C23CCC1C[C@@]21O[C@@H]2C(C)(C)C=CC(=O)C23COC1=O", "growth, %": 101}
{"Molecule": "O=C1c2[nH]cc(CN[C@@H]3CCCN3)c2C(=O)c2c1c(O)c1ccccc1c2O", "growth, %": -18.4}
{"Molecule": "O=[N+]([O-])c1ccc(C=C2C(Cl)=C(Cl)C(Cl)=C2Cl)cc1", "growth, %": 53}
{"Molecule": "COc1ccc(NC(=O)c2ccc3c(c2)nc(-c2ccc(Cl)cc2)n3-c2cc(C(C)(C)C)[nH]n2)cc1", "growth, %": 61}
{"Molecule": "O=C(NCc1ccco1)C1CCN(S(=O)(=O)c2ccc(Cl)cc2)CC1", "growth, %": 70.4}
{"Molecule": "COC(=O)/C=C1/CCC2C3CCC4=CC(=O)C(Br)CC4(C)C3C(=O)CC12C (stereo not given)", "growth, %": 73.9}
{"Molecule": "Cc1ccc(N=c2nc3sc4c(C)ccc(C)c4n3c(N)c2C#N)cc1", "growth, %": 88.4}
{"Molecule": "COc1cc(C(F)(F)F)ccc1-c1cc(-c2ccc(F)cc2)n[nH]1", "growth, %": 78.4}
{"Molecule": "COc1cc2cc(Oc3ccc(NC(=O)Nc4ccc(Cl)c(C(F)(F)F)c4)cc3)c(C)nc2cc1OCCN1CCCCC1", "growth, %": 15.4}
{"Molecule": "CCCCCCCC/C=C\\CCCCCCCCOc1cccc(CC(=O)NCC[N+](C)(C)C)c1", "growth, %": 71.2}
{"Molecule": "COc1ccc(-c2c3c(N)c4c(nc3nc3c2c(C)nn3-c2ccccc2)CCCCC4)cc1", "growth, %": 84.2}
{"Molecule": "CCN1C(=O)C2(Nc3ccccc3S2)c2cc(C)ccc21 (stereo not given)", "growth, %": 99}
{"Molecule": "COc1cc2nc(N3CCC[C@H](NC4=CC(=O)c5ccccc5C4=O)C3)nc(N)c2cc1OC", "growth, %": -56.6}
{"Molecule": "COc1ccc(-c2[nH]ncc2Nc2cc(OC)c(OC)c(OC)c2)cc1", "growth, %": 36.1}
{"Molecule": "CC1(C)N=C(N)N=C(N)N1c1cccc(/C=C/C=C/c2cccc([N+](=O)[O-])c2)c1", "growth, %": 96.9}
{"Molecule": "C[C@@H](Oc1cc(-c2cnn(C3CC4(CNC4)C3)c2)cnc1N)c1c(Cl)ccc(F)c1Cl", "growth, %": 65.7}
